assay: AUClast in Swiss mouse plasma at 3 mg/kg, iv measured upto 24 hrs by LC-MS/MS analysis; format: ADME, organism-based; design: time < 24 hrs, dose 3 mg/kg, route iv
propertyLabel: AUC(0-t) at 24 h (ng·h/mL)
One number for each entry, in ng·h/mL.

**Query** Consider the compound CO[C@@H](CNC(=O)[C@H](NC(=O)[C@H](O)[C@H](C)O)[C@H](O)c1cncn1C)[C@H](O)[C@H](O)C(=O)N(C)[C@@H](Cc1ccccc1)C(=O)NCC(=O)N[C@H](C(=O)N[C@@H](CO)C(=O)N[C@H](C(=O)N[C@H](C(=O)N[C@@H](CC(=O)O)C(=O)N1CCC[C@H]1C(=O)NCc1cc(=O)c(O)cn1O)C(C)(C)C)C(C)(C)O)C(C)(C)O and give its measured AUC(0-t) at 24 h.
**Result** 2860

###

experiment: Lipophilicity, log D of the compound at pH 7.4; assay type: physicochemical; conditions: buffer
Numbered stars: 1 amine (or outer) side, 2 acyl side, 3 side chain; on linkers, the order of the positions; unused ones are H or OH. Square brackets hold non-standard residues; d marks the D form. Peptide text beside a SMILES is read from it. * marks the point of attachment. Ava(2S,3R-(OH)2,4S-OMe) = CO[C@@H](CN[*:1])[C@H](O)[C@H](O)C(=O)[*:2]; dHis(βS-OH,π-Me) = Cn1cncc1[C@@H](O)[C@@H](N)C(=O)O; Butanoyl(2R-OH,3S-OH) = C[C@H](O)[C@@H](O)C(=O)*; Val(3-OH) = CC(C)(O)[C@H](N)C(=O)O; NMeF = CN[C@@H](Cc1ccccc1)C(=O)O
propertyLabel: logD
One number for each entry.

**Query** Consider the molecule CO[C@@H](CNC(=O)[C@H](NC(=O)[C@H](O)[C@H](C)O)[C@H](O)c1cncn1C)[C@H](O)[C@H](O)C(=O)N(C)[C@@H](Cc1ccccc1)C(=O)NCC(=O)N[C@H](C(=O)N[C@@H](CO)C(=O)N[C@H](C(=O)N[C@@H](CC(C)C)C(=O)N[C@@H](CO)C(=O)O)C(C)(C)O)C(C)(C)O ({Butanoyl(2R-OH,3S-OH)}-[dHis(βS-OH,π-Me)][Ava(2S,3R-(OH)2,4S-OMe)][NMeF]G[Val(3-OH)]S[Val(3-OH)]LS-OH) and give its measured logD.
**Result** 0.68

###

tested on: Escherichia coli; assay: Antibacterial activity against Escherichia coli ATCC 35218 assessed as reduction in microbial growth incubated for 20 to 22 hrs by CLSI based analysis; format: functional; conditions: time 20-22 hrs
propertyLabel: MIC (µg/mL)
One number for each entry, in µg/mL.

testSmiles: CO[C@@H](CNC(=O)[C@H](NC(=O)[C@H](O)[C@H](C)O)[C@H](O)c1cncn1C)[C@H](O)[C@H](O)C(=O)N(C)[C@@H](Cc1ccc(F)cc1)C(=O)NCC(=O)N[C@H](C(=O)N[C@@H](CO)C(=O)N[C@H](C(=O)N[C@H](C(=O)N[C@@H](CO)C(=O)NCCN)C(C)(C)C)C(C)(C)O)C(C)(C)O
MIC, µg/mL: 0.125

**Query** Return MIC measured with Escherichia coli given this compound: CO[C@@H](CNC(=O)[C@H](NC(=O)[C@H](O)[C@H](C)O)[C@H](O)c1cncn1C)[C@H](O)[C@H](O)C(=O)N(C)[C@@H](Cc1ccccc1)C(=O)NCC(=O)N[C@H](C(=O)N[C@@H](CO)C(=O)N[C@@H](C)C(=O)N[C@@H](CC(C)C)C(=O)N[C@@H](CO)C(=O)O)C(C)(C)O
**Result** 32
